Assay: qHTS Assay for Spectroscopic Profiling in A647 Spectral Region
Conditions: Compound fluorescence, A647 channel (570/671 nm), Tris buffer; hits give high values
Excerpt: NIH Molecular Libraries Screening Centers Network [MLSCN] NIH Chemical Genomics Center [NCGC] […] While the most informative fluorescent profiling data set is obtained by performing a full excitation and emission scan of each well by using a monochromator-based plate reader, such an approach is practical only on a very limited scale as scanning each well requires long time. […]
Hit rate of the full screen: of about 59,000 compounds, fewer than 10 were called active. A selection follows.
Below, each entry is listed with its recorded max dye-equivalent concentration.
endpoint.label: max dye-equivalent concentration

COCC(C)n1c(SCc2ccc(C(=O)OC)o2)nc2ccccc2c1=O (stereo not given) :: 1.6 nM (inactive)
O=C(CN1C(=O)COc2ccccc21)NCCN1CCc2ccccc2C1 :: 23 nM (inactive)
O=C(c1ccncc1)N1CCC2(CCCN(C(c3ccccc3)c3ccccc3)C2)CC1 :: 10 nM (inactive)
CCCCN(CCCC)C(=O)CCS(=O)(=O)c1ccc2c(c1)n(C)c(=O)c(=O)n2C :: 16 nM (inactive)
O=C(c1cccs1)N1CCN(C(=O)N2CCOCC2)CC1 :: 9.6 nM (inactive)

###

experiment: qHTS Assay for Spectroscopic Profiling in A647 Spectral Region; conditions: Compound fluorescence, A647 channel (570/671 nm), Tris buffer; hits give high values
Among all 59,000 compounds or so, fewer than 10 were called active. Not all results are given here.
Below, each entry is listed with its recorded max dye-equivalent concentration.
endpoint.label: max dye-equivalent concentration

Cc1oc(C)c(C(=O)NCCCC(=O)O)c1C(=O)NCCCC(=O)O :: 15 nM (inactive)
CN(C)Cc1c(C#N)c2ccccc2n1C :: 1 nM (inactive)
COC(=O)[C@H](CCSC)NC(=O)Nc1ccc(OC)cc1 :: 5.2 nM (inactive)
O=C(OC1CCOC1=O)c1ccc(-c2nc3ccccc3s2)s1 (stereo unspecified) :: 1 nM (inactive)
CC1(C)SC2c3ccccc3C(=O)N2[C@@H]1C(=O)NCc1ccco1 (stereo partly specified) :: 1 nM (inactive)
N#C/C=C1\Sc2ccccc2C(=O)N1CC(=O)N1CCN(S(=O)(=O)c2ccccc2)CC1 :: 1 nM (inactive)

###

Below, each entry is listed with its recorded max dye-equivalent concentration.
assay: qHTS Assay for Spectroscopic Profiling in A647 Spectral Region; conditions: Compound fluorescence, A647 channel (570/671 nm), Tris buffer; hits give high values
The campaign covered roughly 59,000 compounds. Fewer than 10 were called active. Only a sample is shown.
endpoint.label: max dye-equivalent concentration

Cc1c(O)c(Br)c(C)c(O)c1Br (tested in a mixture with another compound) :: 36 nM (inactive)
CCC(CC)c1nnc(NS(=O)(=O)Cc2ccccc2)s1 :: 5 nM (inactive)
COc1ccc(CC(=O)Nc2c3c(nn2-c2cccc(Cl)c2)CS(=O)C3)cc1 (stereo not drawn) :: 12 nM (inactive)
CCON=C1C(C)(C)C(C)(C)C(C)(C)C1(C)C :: 1 nM (inactive)
COCCCNC(=O)CSc1nc2ccc(N3CCOCC3)cc2c(=O)n1CCc1ccccc1 :: 19 nM (inactive)
C=C(C)CSc1nc(N)c2c3c(sc2n1)CCC3 :: 1.9 nM (inactive)
CSCC[C@H](NC(=O)NCc1cccs1)C(=O)O :: 3.7 nM (inactive)
Cc1nnc(SCc2ccc(C(=O)c3ccc(Cl)cc3)o2)n1-c1ccccc1 :: 1.7 nM (inactive)
CC(=O)/C(C)=N\O :: 34 nM (inactive)
N#CC1=C(N)C(C#N)(C#N)[C@H](c2ccsc2)[C@H]2COCC=C12 :: 25 nM (inactive)
COc1ccc(C(=O)Nc2cccnc2)cc1C(=O)Nc1cccnc1 :: 1.5 nM (inactive)
COC(=O)c1ccc(NCC(=O)c2ccccc2)cc1 :: 1.7 nM (inactive)
COc1ccccc1CNC(=O)CCCn1c(=O)c2ccccc2n(CC(=O)NC2CCCC2)c1=O :: 28 nM (inactive)
CC(C)CSC[C@@H]1O[C@H](n2cnc3c(N)nccc32)[C@H](O)[C@@H]1O :: 13 nM (inactive)
Cc1nc(NCc2ccccc2)c(C(N)=O)c2c1COC(C)(C)C2 :: 37 nM (inactive)
ClC(Cl)(Cl)C(N1CCN(c2ccccc2)CC1)N1CCN(c2ccccc2)CC1 :: 1 nM (inactive)
COc1ccc(C(c2nnnn2Cc2cccs2)N2CCN(c3ccccc3)CC2)cc1OC (stereo not drawn) :: 11 nM (inactive)
Cc1cc(C)nc(SCc2nnc(SCC(=O)OC3CCCCC3)o2)n1 :: 1 nM (inactive)
Cc1nn(-c2ccccc2)c2sc(C(=O)N(Cc3ccco3)C(C)C(=O)NC(C)(C)C)cc12 (stereo not drawn) :: 1 nM (inactive)
Cc1csc(NC(=O)C2CCCN2C(=O)OCC(C)C)n1 (stereo not drawn) :: 15 nM (inactive)
CCn1c(=O)cc(SCC(=O)NCc2ccc3c(c2)OCO3)c2ccccc21 :: 34 nM (inactive)
COC(=O)c1c(NC(=O)c2cccs2)sc2c1CCCC2 :: 1 nM (inactive)
O=C(O)CN1C(=O)CC(Cc2ccccc2)C1=O (stereo not drawn) :: 1 nM (inactive)

###

assay: qHTS Assay for Spectroscopic Profiling in A647 Spectral Region; settings: Compound fluorescence, A647 channel (570/671 nm), Tris buffer; hits give high values
The campaign covered roughly 59,000 compounds. Fewer than 10 were called active. These entries were drawn from the full list.
endpoint.label: max dye-equivalent concentration

CN(C)CCSc1nc(N)c2c3c(sc2n1)COC(C)(C)C3 :: 6.7 nM (inactive)
CCCSC1=C(C#N)C(c2ccccc2C)C(C(=O)OC)C(=O)N1 (configuration not stated) :: 58 nM (inactive)
COC(=O)c1cc(C(=O)OC)cc(N2C(=O)CC(N3CCN(c4ccccc4)CC3)C2=O)c1 (configuration not stated) :: 14 nM (inactive)
CCOC(=O)c1[nH]cnc1C(=O)NC1CCCCC1 :: 1 nM (inactive)
O=c1c(CCc2ccccc2)nc2cnc(N3CCNCC3)nc2n1Cc1cccs1 :: 1 nM (inactive)
CCCS(=O)(=O)Nc1c(C(=O)O)[nH]c2ccccc12 :: 1 nM (inactive)
Cn1nnnc1SCC(=O)N1CCN(C(c2ccccc2)c2ccccc2)CC1 :: 1 nM (inactive)
O=c1[nH]c(=O)c2nc3ccccc3nc2[nH]1 :: 49 nM (inactive)
Cc1ccc(C(C(=O)NC2CCCC2)N(Cc2ccco2)C(=O)CCC(=O)Nc2ccccn2)cc1 (configuration not stated) :: 23 nM (inactive)
CC(C)C(C(=O)NC1CCCCC1)N(CC1CCCO1)C(=O)CNS(=O)(=O)c1ccc(F)cc1 (configuration not stated) :: 1 nM (inactive)
O=S(=O)(/C=C/c1ccccc1)NCCc1ccccn1 :: 23 nM (inactive)
Cc1cc(NC(=O)COc2ccc(Cl)cc2Cl)n(CCC#N)n1 :: 18 nM (inactive)
CCCNS(=O)(=O)c1ccc(CCC(=O)NCc2cccnc2)cc1 :: 46 nM (inactive)
CN(Cc1ccco1)c1cc(-c2ccccc2C(F)(F)F)ncn1 :: 1 nM (inactive)
CCCn1c(=O)c2[nH]c(-c3ccc(OCC(=O)NCCN)cc3)nc2n(CCC)c1=O :: 50 nM (inactive)
Cc1c(C(=O)OCc2cc(=O)n3cc(Br)ccc3n2)oc2ccccc12 :: 28 nM (inactive)
O=S(=O)(c1ccccc1)N(CC(O)CN1CCCCC1)c1ccccc1 (configuration not stated) :: 1 nM (inactive)
COc1ccc2c(c1)CCc1c(C(=O)Nc3c(C)n(C)n(-c4ccccc4)c3=O)noc1-2 :: 1 nM (inactive)
CCCOc1ccc(-c2nc(N)n[nH]2)cc1 :: 1 nM (inactive)
COc1cccc(OC)c1OCCN1CCN(C(=O)c2ccco2)CC1 :: 1 nM (inactive)
O=C(c1cccc(F)c1)N1CCC2(CC1)CCN(c1ccccc1)CC2 :: 1.1 nM (inactive)
COc1cc(C2C3C(=O)N(c4ccccc4)C(=O)C3ON2c2ccccc2)ccc1O (configuration not stated) :: 30 nM (inactive)

###

Assay: qHTS Assay for Spectroscopic Profiling in A647 Spectral Region
Settings: Compound fluorescence, A647 channel (570/671 nm), Tris buffer; hits give high values
Description: NIH Molecular Libraries Screening Centers Network [MLSCN] NIH Chemical Genomics Center [NCGC] […] While the most informative fluorescent profiling data set is obtained by performing a full excitation and emission scan of each well by using a monochromator-based plate reader, such an approach is practical only on a very limited scale as scanning each well requires long time. […]
Hit rate of the full screen: of about 59,000 compounds, fewer than 10 were called active. A selection follows.
endpoint.label: max dye-equivalent concentration

CC(=O)Oc1cccc(N2C(=O)CC(Nc3ccc(N4CCOCC4)cc3)C2=O)c1 (stereo unspecified) :: 1 nM (inactive)
O=C(O)c1ccc(C(=O)c2ccccc2C(=O)O)cc1C(=O)O :: 3.2 nM (inactive)
O=C(O)[C@@H](S)[C@H](S)C(=O)O :: 1.2 nM (inactive)
Cc1ccccc1Nc1nnc(C)c(=O)[nH]1 :: 45 nM (inactive)
CSc1sc(C)cc1C1C(C#N)=C(N)N(c2cccnc2)C2=C1C(=O)CCC2 (stereo unspecified) :: 18 nM (inactive)
CCOC(=O)CSc1nc2sc3c(c2c(=O)[nH]1)CC(C)(C)OC3 :: 2.2 nM (inactive)
N#Cc1ccc(CSc2nnc(-c3ccccn3)n2-c2ccc(Cl)cc2)cc1 :: 2.1 nM (inactive)
CC1Cc2nc(SCC(=O)Nc3ccccc3F)n(C)c(=O)c2S1 (stereo unspecified) :: 1 nM (inactive)
CCOC(=O)c1c(C)nc(-c2ccccc2)nc1NC(=O)C(C)C :: 1 nM (inactive)
OCCCN1c2ccccc2Nc2nnc(-c3ccccc3)cc21 :: 20 nM (inactive)
NC(=S)c1ccc(C(N)=S)o1 :: 5.7 nM (inactive)
O=C(Nc1c[nH]c(=O)[nH]c1=O)Oc1ccccc1 :: 1 nM (inactive)
Cc1ccccc1Nc1nc(N)nc(CN2CCN(c3ccccn3)CC2)n1 :: 44 nM (inactive)
COCCn1nnnc1CN1CCC(NC(=O)Nc2cccc(OC)c2)CC1 :: 41 nM (inactive)
Cc1ccc(C(=O)O)cc1S(=O)(=O)NCC1CCCO1 (stereo unspecified) :: 1 nM (inactive)
O=C1c2oc3ccc(Br)cc3c(=O)c2C(c2cccc(F)c2)N1CCO (stereo unspecified) :: 3.9 nM (inactive)
N#Cc1c(N)sc2c1CCN(C(=O)OCc1ccccc1)C2 :: 36 nM (inactive)
COc1cc(NS(=O)(=O)c2ccc(NC(C)=O)cc2)cc(OC)c1 :: 2 nM (inactive)
CN1CCc2c(sc3c2c(NCc2ccco2)nc2nnnn23)C1 :: 1 nM (inactive)
Cc1cc2ccccc2n2c(SCC(=O)N3CCN(C(=O)c4ccco4)CC3)nnc12 :: 3.8 nM (inactive)
COC(=O)Nc1c(C)n(C)n(-c2ccccc2)c1=O :: 1 nM (inactive)
Fc1ccc2nc(Nc3nc4c(s3)CCCC4)sc2c1 :: 34 nM (inactive)
Cc1ccc(-n2c(N)c(C(=O)N3CCOCC3)sc2=S)c(C)c1 :: 1 nM (inactive)
COc1ccc(-c2cc3n(n2)CCc2nc4ccccc4n2-3)cc1 :: 1 nM (inactive)
Cc1cc(Cl)c(S(=O)(=O)NCC2CCCO2)cc1OCC(N)=O (stereo unspecified) :: 1 nM (inactive)
Clc1ccc(Cc2nn3c(-c4ccncc4)nnc3s2)cc1 :: 4 nM (inactive)
CCN(C(=O)CSc1ncn[nH]1)c1cccc2ccccc12 :: 1 nM (inactive)
C#CCN1C(=O)C(O)(CC(=O)c2cc(OC)ccc2OC)c2ccccc21 (stereo unspecified) :: 44 nM (inactive)
O=C(O)CSCNC(=O)CC12CC3CC(CC(C3)C1)C2 :: 1.2 nM (inactive)
CN(C(=O)COc1nnc(-c2cccs2)c(-c2cccs2)n1)c1ccccc1 :: 1 nM (inactive)
COc1cc(C(=O)N(Cc2ccc(N(C)C)cc2)C2CCS(=O)(=O)C2)cc(OC)c1OC (stereo unspecified) :: 8.2 nM (inactive)
O=C(CCCN1C(=O)CSc2ncccc21)N1CCN(c2cccc(C(F)(F)F)c2)CC1 :: 6.4 nM (inactive)
CC(C)c1nc(N2CCOCC2)c(C#N)c2c1COC(C)(C)C2 :: 69 nM (inactive)
Cc1ccc(-c2noc(CSc3nnc(-c4ccccc4)n3C)n2)cc1 :: 17 nM (inactive)
O=C(CCc1ccccc1)Nc1ccc(NC(=O)C2CC2)nc1 :: 45 nM (inactive)
N=C(CC(=O)Nc1ccccn1)c1ccccc1 :: 36 nM (inactive)
Cn1cc(-c2nc3cncnc3n(-c3ccccc3)c2=O)c2ccccc21 :: 1 nM (inactive)
CCCCN(CC)CCCNC(=O)CS(=O)(=O)Cc1nc(-c2cccc(OC)c2)oc1C :: 1 nM (inactive)
CC(C)CCNC(=O)C(C)N(C(=O)Cn1nnc(-c2ccc(F)cc2)n1)C1CCCC1 (stereo unspecified) :: 1 nM (inactive)
COc1ccc(S(=O)(=O)N2CCN(c3ncnc4c(-c5ccccc5)nsc34)CC2)cc1 :: 45 nM (inactive)
CCC(C)(C)n1nnnc1C(c1cccs1)N1CCN(Cc2ccccc2)CC1 (stereo unspecified) :: 35 nM (inactive)
Fc1ccccc1C(c1nnnn1Cc1ccc2c(c1)OCO2)N1CCN(Cc2ccccc2)CC1 (stereo unspecified) :: 3.5 nM (inactive)
Cc1nc(NC(=O)CCC(=O)O)sc1C(=O)N(C)C :: 1 nM (inactive)
CN1CCCC(OC(=O)COc2ccc(Br)cc2)C1 (stereo unspecified) :: 2.1 nM (inactive)
CCOC(=O)CNC(=O)CSc1nnc(COc2ccc(Cl)cc2)n1CC :: 39 nM (inactive)
CC1(N2CCOCC2)CC2(O)C(=[N+]1[O-])CCc1nonc12 (stereo unspecified) :: 31 nM (inactive)
